Target: Purine nucleoside phosphorylase (PNPase) (Homo sapiens, UniProt P00491)
Construct: Purine nucleoside phosphorylase (PNPase) was purified from human erythrocytes; from tissue; host or cells: human erythrocytes
Sequence (P00491 whole entry): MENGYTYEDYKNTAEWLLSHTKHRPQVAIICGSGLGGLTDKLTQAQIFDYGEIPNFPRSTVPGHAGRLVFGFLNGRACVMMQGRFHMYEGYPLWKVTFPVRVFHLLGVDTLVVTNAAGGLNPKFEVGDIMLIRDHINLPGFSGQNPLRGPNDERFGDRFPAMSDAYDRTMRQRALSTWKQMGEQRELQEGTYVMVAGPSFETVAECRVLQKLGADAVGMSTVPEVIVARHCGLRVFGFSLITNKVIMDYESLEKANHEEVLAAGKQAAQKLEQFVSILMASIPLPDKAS
Experiment: Inhibition of purine nucleoside phosphorylase, spectrophotometric assay of inosine phosphorolysis coupled with xanthine oxidase
Type: biochemical
Details: apparent inhibition constant calculated from percent inhibition at a single inhibitor concentration assuming competitive inhibition; PNPase from human erythrocytes; 0.1 mM inosine, 1 mM potassium phosphate, pH 7.5, 2µM ZnCl₂; read-out: Ki
measured metric: Ki (nM)

[1] Nc1nc2c(ncn2CCCOCP(=O)(O)CP(=O)(O)O)c(=O)[nH]1 [Compound 6]
[2] Nc1nc(O)c2ncn(CCCCP(=O)(O)CP(=O)(O)O)c2n1 [Compound 2]
[3] Nc1nc(O)c2ncn(CCCCCCCP(=O)(O)CP(=O)(O)O)c2n1 [Compound 4]
Q: I'd appreciate it if you sorted the entries above by their Ki, lowest to highest. // list labels; follow requested order
Ans: 1, 3, 2
(1: 4.5 nM, 3: 8.3 nM, 2: 77 nM)
